study-system: human NLRP3 (Homo sapiens (Human))
measurement-description: Scintillation Proximity (SPA) NLRP3 Assay: displacement of 3H-MCC950
Assay type: binding
measurement-parameters: displacement of 3H-MCC950; read-out: SPA IC50
Catalogue of IC50 values

O=C(N[C@@H]1CCC[C@@H]2CC[C@H]1N2c1nnn[nH]1)C1(c2ccc(C(F)(F)F)cc2O)CC1 [88A*] : < 1 µM

Given item C[C@@H]1CCN(c2nnn[nH]2)C[C@H](NC(=O)C2(c3ccc(OC(F)F)cc3O)CC2)C1 (single isomer, unassigned) [70A*] , the value recorded as its IC50 is < 1 µM

// field: IC50; key: C[C@H]1CCN(c2nnn[nH]2)C[C@H](NC(=O)C2(c3ccc(Cl)cc3F)CC2)C1 (single isomer, unassigned) [56C*] ; value = 50 to 100 µM

Kindly note the recorded IC50 for C[C@@H]1C[C@H](NC(=O)C2(c3ccc(C4CC4(F)F)cc3)CC2)[C@H]2CC[C@@H]1N2c1nnn[nH]1 (single isomer, unassigned) [37B*] , which is 10 to 50 µM

# IC50 of C[C@H]1C[C@@H](NC(=O)C2(c3ccc(C(F)F)cc3O)CC2)CN(c2nnn[nH]2)C1 [Compound 48A] = < 1 µM

# IC50 of C[C@@H]1CC[C@@H](NC(=O)C2(c3ccc(Cl)cc3O)CC2)CN(c2nnn[nH]2)C1 (single isomer, unassigned) [90C*] = 10 to 50 µM

Quick note, IC50 for C[C@H]1CC[C@@H](NC(=O)C2(c3ccc(Cl)cc3O)CC2)CN(c2nnn[nH]2)C1 (single isomer, unassigned) [90A*] landed at < 1 µM

----------
Measured IC50, listed per entry.
study-system: human NLRP3 (Homo sapiens (Human))
measurement-description: Human PBMC NLRP3 Assay (LPS priming, ATP stimulation, cytokine measurement)
Format: cell-based
measurement-parameters: read-out: PBMC IC50
// return numeric value only (unit: nM, not printed)

Lab book: IC50 of O=C(Cc1ccc(Cl)cc1)N[C@@H]1CCCN(c2nnn[nH]2)C1 [Comparative Example H, reference compound] noted as 10500

Kindly note the recorded IC50 for C[C@H]1C[C@@H](NC(=O)C2(c3ccc(C(F)(F)F)cc3O)CC2)CN(c2nnn[nH]2)C1 [Compound 16A] , which is 4.3

Record summary for O=C(N[C@@H]1CCCN(c2nnn[nH]2)C1)C1(c2ccc(Cl)cc2)CC1 [Compound 10A] : reported IC50 = 2100

----------
study-system: human NLRP3 (Homo sapiens (Human), UniProt Q96P20)
Sequence (Q96P20 whole entry): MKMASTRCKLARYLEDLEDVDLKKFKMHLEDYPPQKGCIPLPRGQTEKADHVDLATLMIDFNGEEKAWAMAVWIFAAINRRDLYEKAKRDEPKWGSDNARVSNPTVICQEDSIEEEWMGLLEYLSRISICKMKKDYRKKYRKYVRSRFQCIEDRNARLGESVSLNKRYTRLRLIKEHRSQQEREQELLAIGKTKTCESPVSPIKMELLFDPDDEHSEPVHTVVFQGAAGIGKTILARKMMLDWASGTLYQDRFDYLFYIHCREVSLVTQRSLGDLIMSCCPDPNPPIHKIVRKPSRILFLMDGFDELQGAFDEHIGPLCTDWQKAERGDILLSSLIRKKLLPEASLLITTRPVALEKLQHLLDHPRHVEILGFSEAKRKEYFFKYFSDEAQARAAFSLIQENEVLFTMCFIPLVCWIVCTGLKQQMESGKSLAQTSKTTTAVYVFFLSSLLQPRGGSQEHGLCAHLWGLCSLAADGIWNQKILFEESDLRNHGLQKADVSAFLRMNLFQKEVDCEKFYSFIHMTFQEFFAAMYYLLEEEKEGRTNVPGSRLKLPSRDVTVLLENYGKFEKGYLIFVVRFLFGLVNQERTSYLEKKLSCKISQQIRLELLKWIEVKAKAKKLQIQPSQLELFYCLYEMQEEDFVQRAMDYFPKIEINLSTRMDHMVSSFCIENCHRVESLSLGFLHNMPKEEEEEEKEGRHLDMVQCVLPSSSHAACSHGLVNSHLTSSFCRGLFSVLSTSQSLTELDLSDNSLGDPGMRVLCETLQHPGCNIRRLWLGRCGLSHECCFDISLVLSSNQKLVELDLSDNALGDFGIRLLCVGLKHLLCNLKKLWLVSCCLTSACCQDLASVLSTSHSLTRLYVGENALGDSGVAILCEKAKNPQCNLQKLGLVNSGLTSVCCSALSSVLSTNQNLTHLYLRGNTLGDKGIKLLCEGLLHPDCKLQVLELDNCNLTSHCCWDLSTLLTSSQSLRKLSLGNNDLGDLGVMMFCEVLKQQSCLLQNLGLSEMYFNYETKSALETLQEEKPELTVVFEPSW
measurement-description: Human PBMC NLRP3 Assay (LPS priming, ATP stimulation, cytokine measurement)
Type: cell-based
measurement-parameters: PBMC IC50, human PBMC, LPS priming, ATP stimulation
measurement-kind: IC50

Please fill in: IC50 reported for O=C(N[C@@H]1CC[C@H]2CC[C@@H]1N2c1nnn[nH]1)C1(c2ccc(Cl)cc2O)CC1 [75C*] = 10 to 100 nM

What the record says about O=C(N[C@@H]1CCC[C@@H]2CC[C@H]1N2c1nnn[nH]1)C1(c2ccc(C3CC3)cc2O)CC1 [93A*] : IC50 is 10 to 100 nM

IC50 reading for C[C@@H]1C[C@@H](NC(=O)C2(c3ccc(C(F)(F)F)cc3F)CC2)[C@H]2CC[C@@H]1N2c1nnn[nH]1 [84A*] : < 10 nM

Quick note, IC50 for C[C@@H]1C[C@@H](NC(=O)C2(c3ccc(SC(F)F)cc3)CC2)[C@H]2CC[C@@H]1N2c1nnn[nH]1 [85A*] landed at < 10 nM

Entry under test: O=C(N[C@@H]1CC[C@H]2CC[C@@H]1N2c1nnn[nH]1)C1(c2ccc(OC(F)(F)F)cc2O)CC1 [78C*] . Its IC50 was 10 to 100 nM

IC50 reported for this molecule C[C@@H]1C[C@@H](NC(=O)C2(c3ccc(C(F)F)cc3)CC2)[C@H]2CC[C@@H]1N2c1nnn[nH]1 [86A*] : 10 to 100 nM

C[C@@H]1C[C@@H](NC(=O)C2(c3ccc(Cl)cc3)CC2)[C@H]2CC[C@@H]1N2c1nnn[nH]1 [80A*] has a reported IC50 of 10 to 100 nM

The measured IC50 associated with C[C@@H]1C[C@@H](NC(=O)C2(c3ccc(OC(F)(F)F)cc3)CC2)[C@H]2CC[C@@H]1N2c1nnn[nH]1 [82A*] reads < 10 nM

----------
study-system: human NLRP3 (Homo sapiens (Human))
measurement-description: Scintillation Proximity (SPA) NLRP3 Assay: displacement of 3H-MCC950
Assay type: binding
measurement-parameters: displacement of 3H-MCC950; read-out: SPA IC50
Reported values of IC50 for individual entries

Below: 8 compounds and their reported IC50.
C[C@@H]1CCN(c2nnn[nH]2)C[C@H](NC(=O)C2(c3ccc(Cl)cc3F)CC2)C1 (single isomer, unassigned) [56A*] : < 1 µM
C[C@H]1CCN(c2nnn[nH]2)C[C@H](NC(=O)C2(c3ccc(Cl)c(F)c3)CC2)C1 (single isomer, unassigned) [65C*] : 10 to 50 µM
C[C@H]1C[C@@H](NC(=O)C2(c3ccc(OC(F)F)cc3O)CC2)CN(c2nnn[nH]2)C1 [Compound 19A] : < 1 µM
C[C@@H]1CC[C@H](NC(=O)C2(c3ccc(C4CC4)cc3O)CC2)CN(c2nnn[nH]2)C1 (single isomer, unassigned) [91D*] : 1 to 10 µM
C[C@@H]1CC[C@H](NC(=O)C2(c3ccc(C(F)(F)F)cc3O)CC2)CN(c2nnn[nH]2)C1 [89D*] : 1 to 10 µM
C[C@H]1CCN(c2nnn[nH]2)C[C@@H](NC(=O)C2(c3ccc(C(F)(F)F)cc3F)CC2)C1 (single isomer, unassigned) [68D*] : 1 to 10 µM
C[C@H]1CCN(c2nnn[nH]2)C[C@H](NC(=O)C2(c3c(F)cc(Cl)cc3F)CC2)C1 (single isomer, unassigned) [72C*] : > 100 µM
C[C@H]1CCN(c2nnn[nH]2)C[C@@H](NC(=O)C2(c3ccc(Cl)cc3O)CC2)C1 (single isomer, unassigned) [60D*] : < 1 µM

# next compound below
The reported human NLRP3 (Homo sapiens (Human)) IC50 of C[C@@H]1C[C@H](NC(=O)C2(c3ccc(OC(F)(F)F)cc3)CC2)[C@H]2CC[C@@H]1N2c1nnn[nH]1 [82B*] is > 100 µM

----------
study-system: human NLRP3 (Homo sapiens (Human))
measurement-description: Human PBMC NLRP3 Assay (LPS priming, ATP stimulation, cytokine measurement)
Format: cell-based
measurement-parameters: relative to Compound 10A
measurement-kind: fold increase in potency as measured by PBMC IC50 (fold)
Numeric only. Scale: fold

Here are 2 molecules together with their reported answers.
O=C(N[C@@H]1CCCN(c2nnn[nH]2)C1)C1(c2ccc(Cl)cc2F)CC1 : 2.5
O=C(N[C@@H]1CCCCN(c2nnn[nH]2)C1)C1(c2ccc(Cl)cc2)CC1 [Compound 51A] : 48

Now examine the next entry.
Per the records, this molecule ( C[C@H]1C[C@@H](NC(=O)C2(c3ccc(Cl)cc3)CC2)CN(c2nnn[nH]2)C1 [Compound 46A] ) has fold increase in potency as measured by PBMC IC50 equal to 21

----------
study-system: mouse NLRP3 (Mus musculus (Mouse))
Sequence (Q8R4B8 whole entry): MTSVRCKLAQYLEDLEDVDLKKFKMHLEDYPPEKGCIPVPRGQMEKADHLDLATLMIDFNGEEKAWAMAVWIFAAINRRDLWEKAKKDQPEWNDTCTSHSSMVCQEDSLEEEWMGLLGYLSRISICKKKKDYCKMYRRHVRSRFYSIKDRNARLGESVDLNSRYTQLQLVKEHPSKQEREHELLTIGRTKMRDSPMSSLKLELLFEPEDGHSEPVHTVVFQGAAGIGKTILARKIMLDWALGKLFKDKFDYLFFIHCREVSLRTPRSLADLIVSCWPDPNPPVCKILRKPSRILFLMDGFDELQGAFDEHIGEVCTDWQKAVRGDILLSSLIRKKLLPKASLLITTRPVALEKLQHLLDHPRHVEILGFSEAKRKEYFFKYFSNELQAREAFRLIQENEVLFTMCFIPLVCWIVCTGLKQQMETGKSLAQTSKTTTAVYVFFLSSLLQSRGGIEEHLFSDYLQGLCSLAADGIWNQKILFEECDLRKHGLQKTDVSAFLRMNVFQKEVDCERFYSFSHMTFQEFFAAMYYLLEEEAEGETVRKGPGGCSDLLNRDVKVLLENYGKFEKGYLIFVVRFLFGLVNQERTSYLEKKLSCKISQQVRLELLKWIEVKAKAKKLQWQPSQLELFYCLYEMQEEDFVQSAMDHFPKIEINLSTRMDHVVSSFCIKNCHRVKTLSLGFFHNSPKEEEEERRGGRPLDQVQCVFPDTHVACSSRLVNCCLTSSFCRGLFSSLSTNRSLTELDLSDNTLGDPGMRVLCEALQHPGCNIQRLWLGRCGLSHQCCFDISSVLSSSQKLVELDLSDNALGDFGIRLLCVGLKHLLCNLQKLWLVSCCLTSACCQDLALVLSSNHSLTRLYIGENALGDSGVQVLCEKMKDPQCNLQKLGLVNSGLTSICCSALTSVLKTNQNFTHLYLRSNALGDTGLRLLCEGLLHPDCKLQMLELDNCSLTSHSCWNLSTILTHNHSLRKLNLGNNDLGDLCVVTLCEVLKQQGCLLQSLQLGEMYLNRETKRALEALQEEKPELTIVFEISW
measurement-description: Mouse Whole Blood (mWB) NLRP3 Assay (LPS/ATP, IL-1b)
Type: cell-based
measurement-parameters: mouse whole blood, LPS/ATP, IL-1b
pIC50: −log10 of the molar value.
measurement-kind: pIC50

Study these solved cases before continuing.
C[C@@H]1C[C@@H](NC(=O)C2(c3ccc(C(F)(F)F)cc3)CC2)[C@H]2CC[C@@H]1N2c1nnn[nH]1 [79A*] : > 6.00
C[C@@H]1C[C@@H](NC(=O)C2(c3ccc(OC(F)F)cc3)CC2)[C@H]2CC[C@@H]1N2c1nnn[nH]1 (single isomer, unassigned) [35A*] : > 6.00
C[C@H]1CCN(c2nnn[nH]2)C[C@@H]1NC(=O)C1(c2ccc(Cl)cc2)CC1 [Compound 49C] : 5.52 to 5.70
C[C@@H]1CCN(c2nnn[nH]2)C[C@H](NC(=O)C2(c3ccc(Cl)cc3)CC2)C1 (single isomer, unassigned) [12A*] : > 6.00
C[C@H]1C[C@@H](NC(=O)C2(c3ccc(C(F)(F)F)cc3O)CC2)CN(c2nnn[nH]2)C1 [Compound 16A] : > 6.00

# pIC50 of O=C(N[C@@H]1CCCN(c2nnn[nH]2)C1)C1(c2ccc(Cl)cc2)CC1 [Compound 10A] = 5.70 to 6.00

Record O=C(N[C@@H]1CCCCN(c2nnn[nH]2)C1)C1(c2ccc(Cl)cc2)CC1 [Compound 51A] . Reported pIC50: 5.70 to 6.00

----------
study-system: human NLRP3 (Homo sapiens (Human))
measurement-description: Scintillation Proximity (SPA) NLRP3 Assay: displacement of 3H-MCC950
Format: binding
measurement-parameters: displacement of 3H-MCC950; read-out: SPA IC50
pIC50: −log10 of the molar value.
measurement-kind: pIC50

Some solved cases for reference:
C[C@@H]1CCN(c2nnn[nH]2)C[C@H](NC(=O)C2(c3c(F)cc(Cl)cc3F)CC2)C1 (single isomer, unassigned) [72A*] : > 6.00
C[C@H]1CCN(c2nnn[nH]2)C[C@H](NC(=O)C2(c3ccc(C(F)F)cc3)CC2)C1 (single isomer, unassigned) : < 4.00
C[C@H]1C[C@@H](NC(=O)C2(c3ccc(C4CC4(F)F)cc3O)CC2)CN(c2nnn[nH]2)C1 (single isomer, unassigned) [94A*] : > 6.00
C[C@H]1C[C@@H](NC(=O)C2(c3ccc(C(F)(F)F)cc3O)CC2)CN(c2nnn[nH]2)C1 [Compound 16A] : > 6.00
Cc1ccc(C2(C(=O)N[C@H]3C[C@H](C)CCN(c4nnn[nH]4)C3)CC2)cc1 (single isomer, unassigned) [71B*] : 4.00 to 4.30
C[C@H]1C[C@@H](NC(=O)C2(c3c(O)cc(C4CC4)cc3C(F)F)CC2)CN(c2nnn[nH]2)C1 (single isomer, unassigned) [97A*] : > 6.00
C[C@@H]1C[C@@H](NC(=O)C2(c3ccc(C4CC4(F)F)cc3)CC2)[C@H]2CC[C@@H]1N2c1nnn[nH]1 (single isomer, unassigned) [37A*] : > 6.00
C[C@]1(NC(=O)C2(c3ccc(Cl)cc3)CC2)CCCN(c2nnn[nH]2)C1 (single isomer, unassigned) [11B*] : < 4.00

human NLRP3 (Homo sapiens (Human)) data for C[C@H]1CCN(c2nnn[nH]2)C[C@H](NC(=O)C2(c3cnc(Cl)cc3O)CC2)C1 (single isomer, unassigned) [99C*] ; its pIC50: 4.00 to 4.30

Field pIC50 (human NLRP3 (Homo sapiens (Human))), entry C[C@@H]1CCN(c2nnn[nH]2)C[C@H](NC(=O)C2(c3ccc(OC(F)(F)F)cc3)CC2)C1 (single isomer, unassigned) [57A*] : > 6.00

Item: C[C@H]1CCN(c2nnn[nH]2)C[C@H](NC(=O)C2(c3ccc(OC(F)(F)F)cc3O)CC2)C1 (single isomer, unassigned) [62C*] | System: human NLRP3 (Homo sapiens (Human)) | pIC50: 5.00 to 6.00

Entry C[C@H]1CC[C@H](NC(=O)C2(c3ccc(Cl)cc3)CC2)CN(c2nnn[nH]2)C1 (single isomer, unassigned) [36B*] : pIC50 on human NLRP3 (Homo sapiens (Human)) = 5.00 to 6.00

C[C@H]1CCN(c2nnn[nH]2)C[C@@H](NC(=O)C2(c3ccc(C(F)(F)F)c(OC(F)F)c3)CC2)C1 (single isomer, unassigned) [54D*] on human NLRP3 (Homo sapiens (Human)) gives pIC50 = 4.30 to 5.00
